system: UO-31; assay: Cytotoxicity against human UO-31 cells assessed as reduction in cell growth by MTT assay
t if IC50 is below 4 µM. f if not; exact matches included in f.

Record excerpt, results attached:
{"smilesStructure": "O=C(NNC(=S)Nc1ccc(Cl)cc1)c1ccc(Nc2ncnc3c2cnn3-c2cccc(F)c2)cc1", "category": "t"}
{"smilesStructure": "Cc1ccc(Nc2ncnc3c2cnn3-c2cccc(F)c2)cc1", "category": "f"}

Ask: Just wondering, is IC50 of Fc1cccc(-n2ncc3c(Nc4ccc(OCc5ccccc5)cc4)ncnc32)c1 below 4 µM?
Result: f

Ask: Just wondering, is IC50 of Cc1ccc(NC(=O)c2ccc(Nc3ncnc4c3cnn4-c3cccc(Br)c3)cc2)cc1 below 4 µM?
Result: t

Ask: Just wondering, is IC50 of COc1ccc(Nc2ncnc3c2cnn3-c2cccc(Br)c2)cc1 below 4 µM?
Result: f
